The values you see were collected from the supplement of paper PMC10567573.

B1: PCDHGA10 (parent)
chain: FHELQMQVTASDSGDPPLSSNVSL

# Variants of: B1
# protocol: protein stability index of a GFP-peptide fusion (GPS, HEK-293T) (PSI 1-6); higher = more stable;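 note: lentivirally expressed fusions sorted by FACS into six bins by GFP to DsRed ratio, PSI derived from sequencing read proportions per bin multiplied by bin number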
# assay.setup: c terminus: a fixed tail appended
reported.endpoint: protein stability index
Would you mind answering with just the numeric figure?

1. FHELQMKVTASDSGDPPLSSNVSL [Q7K] :: 1.67
2. SHELQMQVTASDSGDPPLSSNVSL [F1S] :: 5.08
3. FHELQMQVTASMSGDPPLSSNVSL [D12M] :: 3
4. FHELQMQVTASDSGDPPLSSNRSL [V22R] :: 2.69
5. FHELQMQMTASDSGDPPLSSNVSL [V8M] :: 2.28
6. FHELQMQVTASDSGDPPLSSWVSL [N21W] :: 1.55

Inquiry: Specify reported protein stability index for the variant shown: FHELVMQVTASDSGDPPLSSNVSL [Q5V]
Reply text: 2.04

Inquiry: Specify reported protein stability index for the variant shown: FHELPMQVTASDSGDPPLSSNVSL [Q5P]
Reply text: 2.23
